Numbers sourced from patent US4921850A.

# Test system: Kleb. pneumoniae EK-6
# assay_name: Anti-bacterial activity (MIC), agar dilution
# Format: cell-based
# condition_description: Klebsiella pneumoniae, EK6, 18 h, Kleb. pneumoniae EK-6; agar dilution, about 10^6 CFU/ml, 18 hours, 37° C.; read-out: MIC
Record form. Attribute: MIC. Fill in for each entry.

[ask] Query (compound): C[N+](C)(C/C=C/C1=C(C(=O)[O-])N2C(=O)[C@@H](NC(=O)/C(=N\OCF)c3nsc(N)n3)[C@H]2SC1)CC(N)=O [Example 118] ; field requested: MIC
[reply] ≤ 0.025 µg/mL

[ask] Using the record for NC(=O)C[N+]1(C/C=C/C2=C(C(=O)[O-])N3C(=O)[C@@H](NC(=O)/C(=N\OCF)c4nsc(N)n4)[C@H]3SC2)CCC(O)C1 (some centres unmarked) [Example 9-1] , report its MIC.
[reply] ≤ 0.025 µg/mL

[ask] # get_value(readout='MIC', item= Nc1nc(/C(=N/OCF)C(=O)N[C@@H]2C(=O)N3C(C(=O)[O-])=C(/C=C/C[N+]4(CCO)CCCC4)CS[C@H]23)ns1 [Example 20] )
[reply] ≤ 0.025 µg/mL

[ask] Quick one: MIC for CC(O)C[N+](C)(C)CC=CC1=C(C(=O)[O-])N2C(=O)C(NC(=O)C(=NOCF)c3nsc(N)n3)C2SC1 (centres unmarked) [Example 65] ?
[reply] ≤ 0.025 µg/mL

[ask] Please look up its MIC: C[N+]1(C/C=C/C2=C(C(=O)[O-])N3C(=O)[C@@H](NC(=O)/C(=N\OCF)c4nsc(N)n4)[C@H]3SC2)CCN(C(N)=O)CC1 [Example 121]
[reply] ≤ 0.025 µg/mL

[ask] Which MIC value belongs to C[N+]1(C/C=C/C2=C(C(=O)[O-])N3C(=O)[C@@H](NC(=O)/C(=N\OCF)c4nsc(N)n4)[C@H]3SC2)C[C@H](O)C[C@@H]1CO (single isomer, unassigned) [Example 6-1] ?
[reply] ≤ 0.025 µg/mL

[ask] Any idea what its MIC is? The compound is Nc1nc(/C(=N/OCF)C(=O)N[C@@H]2C(=O)N3C(C(=O)[O-])=C(/C=C/C[N+](N)(CCO)CCO)CS[C@H]23)ns1 [Example 107]
[reply] ≤ 0.025 µg/mL

[ask] Value lookup for MIC; key = C[N+](C)(C/C=C/C1=C(C(=O)[O-])N2C(=O)[C@@H](NC(=O)/C(=N\OCF)c3nsc(N)n3)[C@H]2SC1)[C@@H](CO)C(N)=O [Example 62]
[reply] ≤ 0.025 µg/mL

[ask] Which MIC is listed for C[N+](C)(C/C=C/C1=C(C(=O)[O-])N2C(=O)[C@@H](NC(=O)/C(=N\OCF)c3nsc(N)n3)[C@H]2SC1)[C@H](CC(N)=O)C(N)=O [Example 61] ?
[reply] 0.05 µg/mL

[ask] # get_value(readout='MIC', item= C[N+]1(C/C=C/C2=C(C(=O)[O-])N3C(=O)[C@@H](NC(=O)/C(=N\OCF)c4nsc(N)n4)[C@H]3SC2)CCN(S(=O)(=O)O)CC1 [Example 10] )
[reply] ≤ 0.025 µg/mL

[ask] Requested read-out: MIC. Entry: NC(=O)C1CC[N+](C/C=C/C2=C(C(=O)[O-])N3C(=O)[C@@H](NC(=O)/C(=N\OCF)c4nsc(N)n4)[C@H]3SC2)(CCO)CC1 (single isomer, unassigned) [Example 2-1]
[reply] 0.05 µg/mL

[ask] Quick one: MIC of Nc1nc(/C(=N/OCF)C(=O)N[C@@H]2C(=O)N3C(C(=O)[O-])=C(/C=C/C[N+](CCO)(CCO)CCO)CS[C@H]23)ns1 [Example 143] ?
[reply] ≤ 0.025 µg/mL

[ask] So what's the measured MIC for this one? C[N+](C)(C/C=C/C1=C(C(=O)[O-])N2C(=O)[C@@H](NC(=O)/C(=N\OCF)c3nsc(N)n3)[C@H]2SC1)NC(N)=O [Example 53]
[reply] 0.05 µg/mL

[ask] Would you kindly share the measured MIC for C[N+](C)(C/C=C/C1=C(C(=O)[O-])N2C(=O)[C@@H](NC(=O)/C(=N\OCC#N)c3nsc(N)n3)[C@H]2SC1)[C@@H](CO)C(N)=O [Example 145] ?
[reply] 0.1 µg/mL

[ask] Find the recorded MIC belonging to C[N+](C)(C/C=C/C1=C(C(=O)[O-])N2C(=O)[C@@H](NC(=O)/C(=N\OCF)c3nsc(N)n3)[C@H]2SC1)CCO [Example 64] and report it.
[reply] ≤ 0.025 µg/mL

[ask] GET /values?readout=MIC&item= C[N+](C)(C/C=C/C1=C(C(=O)[O-])N2C(=O)[C@@H](NC(=O)/C(=N\OCF)c3nsc(N)n3)[C@H]2SC1)[C@H](CO)C(N)=O [Example 5]
[reply] ≤ 0.025 µg/mL

[ask] Reported MIC, compound CN(C)C(=O)CC[N+](C)(C)C/C=C/C1=C(C(=O)[O-])N2C(=O)[C@@H](NC(=O)/C(=N\OCF)c3nsc(N)n3)[C@H]2SC1 [Example 98] : ____
[reply] 0.05 µg/mL

[ask] Can you look up the measured MIC of C[C@@H](C(N)=O)[N+](C)(C)C/C=C/C1=C(C(=O)[O-])N2C(=O)[C@@H](NC(=O)/C(=N\OCF)c3nsc(N)n3)[C@H]2SC1 [Example 3-1] for me?
[reply] ≤ 0.025 µg/mL

[ask] Given the compound C[N+]1(C/C=C/C2=C(C(=O)[O-])N3C(=O)[C@@H](NC(=O)/C(=N\OCF)c4nsc(N)n4)[C@H]3SC2)C[C@H](O)C[C@H]1CO (some centres unmarked) [Example 8] , what is its reported MIC?
[reply] ≤ 0.025 µg/mL

[ask] Look up MIC for this compound: C[N+](C/C=C/C1=C(C(=O)[O-])N2C(=O)[C@@H](NC(=O)/C(=N\OCF)c3nsc(N)n3)[C@H]2SC1)(CCO)CCO [Example 144]
[reply] 0.05 µg/mL

[ask] // MIC lookup, key: C[N+]1(C/C=C/C2=C(C(=O)[O-])N3C(=O)[C@@H](NC(=O)/C(=N\OCF)c4nsc(N)n4)[C@H]3SC2)CCC(O)CC1 (some centres unmarked) [Example 90]
[reply] ≤ 0.025 µg/mL

[ask] Could you share which MIC value was measured for C[N+](C)(C/C=C/C1=C(C(=O)[O-])N2C(=O)[C@@H](NC(=O)/C(=N\OCF)c3nsc(N)n3)[C@H]2SC1)[C@@H](CC(N)=O)C(N)=O [Example 60] ?
[reply] 0.05 µg/mL

[ask] Entry under review: Nc1nc(/C(=N/OCF)C(=O)N[C@@H]2C(=O)N3C(C(=O)[O-])=C(/C=C/C[N+]4(CCO)CCN(S(N)(=O)=O)CC4)CS[C@H]23)ns1 [Example 29] . Reported MIC?
[reply] ≤ 0.025 µg/mL
